# Experiment: ACEA_AR_antagonist_AUC_viability: ACEA Biosciences xCELLigence Real-Time Cell Analysis on Androgen Receptor Antagonism for Viability (AID 2283776);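 note: 22Rv1 human prostate cancer cells growing on impedance electrode plates; area under impedance growth curve at 80 h after dosing as viability; hits lower the growth signal relative to DMSO meaning cytotoxicity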
Records with an inconclusive call do not appear. Calls of active or inactive are those of the source. Rule for the calls: active = hit-call score of the fitted dose curve at least 0.9, where 1 is the maximum; inconclusive = response in the unintended direction; inactive = score below 0.9.
Could you please pick one outcome from this set? true = active, false = inactive

Q) Status in this test for O=Nc1ccc(Nc2ccccc2)cc1 ?
A) false

Q) Status in this test for CCCCCCCCCCCCCOS(=O)(=O)O ?
A) false

Q) Status in this test for NCCCCCCN ?
A) false

Q) Status in this test for O=C(Cl)c1cccc(C(=O)Cl)c1 ?
A) true

Q) Status in this test for CCCC1CCC(=O)O1 (centres undefined) ?
A) false

Q) Status in this test for CC1=CC(=O)NS(=O)(=O)O1 ?
A) false

Q) Status in this test for CC1CC(OC(=O)c2ccccc2O)CC(C)(C)C1 (centres undefined) ?
A) false

Q) Status in this test for Cc1ccc(O)c(C(C)(C)C)c1 ?
A) false

Q) Status in this test for CC1COc2ccccc2N1C(=O)C(Cl)Cl (centres undefined) ?
A) true

Q) Status in this test for CCCC/C=C\CCCCCCCCCC=O ?
A) false

Q) Status in this test for OC1OC[C@@H](O)[C@H](O)[C@H]1O (some centres undefined) ?
A) false

Q) Status in this test for O=C[C@@H](O)[C@H](O)[C@H](O)CO ?
A) false

Q) Status in this test for CSc1nc(NC2CC2)nc(NC(C)(C)C)n1 ?
A) false

Q) Status in this test for Cc1ccc(C(C)C)cc1O ?
A) false

----------
# Target entity: Cellular tumor antigen p53 (Homo sapiens)
# Experiment: ATG_p53_CIS: Attagene CIS-FACTORIAL HepG2 Assay for human p53 Transcription Factor (AID 2282994)
# Test conditions: HepG2 p53 cis-element reporter, Attagene mRNA; actives raise or lower the signal
Active and inactive are the calls of the source. The calls were made as follows: active = hit-call score of the fitted dose curve at least 0.9, where 1 is the maximum; inactive = score below 0.9.
Could you please pick one outcome from this set? active, inactive

Q) Status in this test for COC(C(=O)O)c1ccccc1 (stereo not given) ?
A) inactive

Q) Status in this test for CC1(C)[C@H](C(=O)OCc2cccc(Oc3ccccc3)c2)[C@@H]1C=C(Cl)Cl ?
A) inactive

Q) Status in this test for CC1=CCC2C(C1)C2(C)C (stereo not given) ?
A) inactive

Q) Status in this test for O=[N+]([O-])c1ccc(Nc2ccc(Nc3ccccc3)c(S(=O)(=O)O)c2)c([N+](=O)[O-])c1 ?
A) active

Q) Status in this test for C=C(C)C(=O)OCCOC(=O)CC(C)=O ?
A) inactive

Q) Status in this test for CC(C)OP(=O)(CP(=O)(OC(C)C)OC(C)C)OC(C)C ?
A) inactive

Q) Status in this test for O=c1[nH]nnc2ccccc12 ?
A) inactive

Q) Status in this test for CO[Si](CCCn1c(=O)n(CCC[Si](OC)(OC)OC)c(=O)n(CCC[Si](OC)(OC)OC)c1=O)(OC)OC ?
A) inactive

Q) Status in this test for CCCCCCCCCCCCSC ?
A) inactive

Q) Status in this test for NC(N)=NC(=O)c1nc(Cl)c(N)nc1N ?
A) inactive

Q) Status in this test for CC(=O)Nc1ccc(C)cc1C ?
A) inactive

Q) Status in this test for COc1ccc(NC(=O)CC(C)=O)cc1 ?
A) inactive

Q) Status in this test for Cc1ncc([N+](=O)[O-])n1C ?
A) inactive

Q) Status in this test for CC(=O)C(C)=O ?
A) inactive

Q) Status in this test for c1cc(C(c2ccc(OCC3CO3)cc2)c2ccc(OCC3CO3)cc2)ccc1OCC1CO1 (stereo not given) ?
A) active

Q) Status in this test for CC(=O)[C@H]1CC[C@H]2[C@@H]3CC=C4C[C@@H](O)CC[C@]4(C)[C@H]3CC[C@]12C ?
A) inactive

Q) Status in this test for CC(=O)OCC=Cc1ccccc1 ?
A) inactive

Q) Status in this test for CCCCCOC(=O)CCC ?
A) inactive

Q) Status in this test for CC(C)=CCC[C@H](C)CC=O ?
A) inactive

Q) Status in this test for CC(=O)OCCC(C)CC(C)(C)C (stereo not given) ?
A) inactive

Q) Status in this test for CC(C)(C)c1cc(CCC(=O)NN)cc(C(C)(C)C)c1O ?
A) inactive

Q) Status in this test for ClCCCl ?
A) inactive

Q) Status in this test for CC(C)=CCCC(C)CC=O (stereo not given) ?
A) inactive

Q) Status in this test for CCCC(C)C=O (stereo not given) ?
A) inactive

Q) Status in this test for CCC(C)CCCC(C)(C)O (stereo not given) ?
A) inactive

Q) Status in this test for CCCCCCCCCOC(C)=O ?
A) inactive

Q) Status in this test for CC(C)CCCCCCCOC(=O)c1ccc(C(=O)OCCCCCCCC(C)C)c(C(=O)OCCCCCCCC(C)C)c1 ?
A) inactive

Q) Status in this test for CCC(O)CO (stereo not given) ?
A) inactive

Q) Status in this test for CCCCC/C=C/C=C/C=O ?
A) inactive

Q) Status in this test for CC(C)(C)C(=O)c1ccccc1 ?
A) inactive

Q) Status in this test for CCN(CC)c1ccc(C(=C2C=CC(=[N+](CC)CC)C=C2)c2ccc(S(=O)(=O)O)cc2S(=O)(=O)[O-])cc1 ?
A) inactive

Q) Status in this test for CCCCNC(=O)NS(=O)(=O)c1ccc(N)cc1 ?
A) inactive

Q) Status in this test for O=c1[nH]c(=O)n([C@H]2CCCO2)cc1F ?
A) inactive

Q) Status in this test for Nc1ccc(F)c([N+](=O)[O-])c1 ?
A) inactive

Q) Status in this test for C=CC(=O)OCCOCCOCC ?
A) inactive

Q) Status in this test for CC(C#N)(CCC(=O)O)N=NC(C)(C#N)CCC(=O)O (stereo not given) ?
A) inactive

Q) Status in this test for O=C(Nc1ccccc1)c1cc([N+](=O)[O-])ccc1Cl ?
A) active

Q) Status in this test for CCn1c2ccccc2c2cc(N)ccc21 ?
A) inactive

Q) Status in this test for C=CC(=O)OCCn1c(=O)n(CCOC(=O)C=C)c(=O)n(CCOC(=O)C=C)c1=O ?
A) active

Q) Status in this test for CC(C)(C#N)c1cc(Cn2cncn2)cc(C(C)(C)C#N)c1 ?
A) inactive

Q) Status in this test for C=C(C)C(=O)Nc1ccc(Cl)c(Cl)c1 ?
A) inactive

Q) Status in this test for CCCCC(CC)COCCC#N (stereo not given) ?
A) inactive

Q) Status in this test for NC(=O)Nc1ccc(Cl)cc1 ?
A) inactive

Q) Status in this test for CSc1nc(NC2CC2)nc(NC(C)(C)C)n1 ?
A) inactive

Q) Status in this test for CC1CCC(C(C)CS)CC1S (stereo not given) ?
A) active

Origin of the recorded values: PubChem BioAssay (EPA / NIEHS)
